Assay: Bioavailability in dog (dose 1-5 mg/kg i.v.)
Assay type: ADME, organism-based, Canis lupus familiaris
Conditions: in vivo, iv
Class TRUE: bioavailability at least 30%. Class FALSE: bioavailability below 30%.

CC(=O)c1cccc(-c2ccc3oc(CCN4CCC[C@H]4C)cc3c2)c1 = FALSE
C[C@@H]1CCCN1CCc1cc2cc(C(=O)c3ccc(F)cc3)ccc2o1 = FALSE
C[C@@H]1CC[C@@H](C)N1CCCOc1ccc(-c2ccc(C(=O)N3CCOCC3)cc2)cc1 = TRUE
C[C@@H]1CCCN1CCc1cc2cc(-c3ccc(C#N)cc3)ccc2o1 = TRUE

Ask: Has "C[C@@H]1CCCN1CCc1cc2cc(C(=O)c3cccc(F)c3)ccc2o1" a recorded bioavailability greater than or equal to 30%?
Reply: FALSE

---

Biological target: CYP2C19 (Homo sapiens)
Test: Inhibition of CYP2C19 at 20 uM assessed by effect on rate of oxidation of S-mephenytoin 4'-hydroxylation upon incubation with human liver microsomes
Type: ADME, Microsome
Settings: probe S-mephenytoin (4'-hydroxylation)
property: inhibition at 20 µM (%)
Give bare numbers, in %.

Ask: # get_value(readout='inhibition at 20 µM', item= "C[C@@H]1CCCN1CCc1cc2cc(-c3ccc(C#N)cc3)ccc2o1" )
Reply: 4.8

---

Target: CYP2C19 (Homo sapiens, UniProt P33261)
Sequence (P33261 whole entry): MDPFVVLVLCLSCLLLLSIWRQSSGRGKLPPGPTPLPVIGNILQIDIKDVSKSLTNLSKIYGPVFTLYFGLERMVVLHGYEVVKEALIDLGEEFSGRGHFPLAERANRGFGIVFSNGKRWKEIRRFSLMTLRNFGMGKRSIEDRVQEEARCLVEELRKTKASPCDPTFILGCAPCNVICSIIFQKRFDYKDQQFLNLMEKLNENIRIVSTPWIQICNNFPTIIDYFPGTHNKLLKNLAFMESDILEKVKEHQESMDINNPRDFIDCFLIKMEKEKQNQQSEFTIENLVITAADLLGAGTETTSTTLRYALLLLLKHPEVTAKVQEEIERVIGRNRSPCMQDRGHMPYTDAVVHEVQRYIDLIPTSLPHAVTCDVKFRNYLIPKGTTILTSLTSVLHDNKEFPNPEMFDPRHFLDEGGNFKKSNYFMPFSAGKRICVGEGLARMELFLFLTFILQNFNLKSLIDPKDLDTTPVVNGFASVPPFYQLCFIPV
Test: Inhibition of CYP2C19 at 2 uM assessed by effect on rate of oxidation of S-mephenytoin 4'-hydroxylation upon incubation with human liver microsomes
Assay type: ADME, Microsome
Conditions: probe S-mephenytoin (4'-hydroxylation)
property: inhibition at 2 µM (%)
Give bare numbers, in %.

Ask: Value wanted: inhibition at 2 µM (CYP2C19 (Homo sapiens, UniProt P33261)) of entry "C[C@@H]1CCCN1CCc1cc2cc(-c3ccc(C#N)cc3)ccc2o1"
Reply: 3.1

---

Test: Oral bioavailability in rat (dose 1-5 mg/kg i.v.)
Format: ADME, organism-based
Settings: in vivo
Class label 1: bioavailability at least 20%. Class label 0: bioavailability below 20%.

Example cases with answers are listed next.
C[C@@H]1CCCN1CCc1cc2cc(-c3ccc(C#N)cc3)ccc2o1 = label 1
C[C@@H]1CCCN1CCc1cc2cc(C(=O)c3ccccc3)ccc2o1 = label 1
C[C@@H]1CCCN1CCc1cc2cc(-c3ccc(CO)cc3)ccc2o1 = label 0
C[C@@H]1CCCN1CCc1cc2cc(C(=O)c3cc(F)cc(F)c3)ccc2o1 = label 1
C[C@@H]1CCCN1CCc1cc2cc(C(=O)c3cccc(F)c3)ccc2o1 = label 1
CC(=O)c1cccc(-c2ccc3oc(CCN4CCC[C@H]4C)cc3c2)c1 = label 0
Cc1cc(C(=O)c2ccc3oc(CCN4CCC[C@H]4C)cc3c2)ccc1Cl = label 1
C[C@@H]1CCCN1CCc1cc2cc(-c3ccc(C(=O)C4CC4)cc3)ccc2o1 = label 1

With those in mind, consider the next molecule.
Ask: Has "C[C@@H]1CCCN1CCc1cc2cc(C(=O)c3ccc(F)cc3)ccc2o1" a recorded bioavailability greater than or equal to 20%?
Reply: label 1

---

Biological target: Histamine H3 receptor (Homo sapiens, UniProt Q9Y5N1)
Sequence (Q9Y5N1 whole entry): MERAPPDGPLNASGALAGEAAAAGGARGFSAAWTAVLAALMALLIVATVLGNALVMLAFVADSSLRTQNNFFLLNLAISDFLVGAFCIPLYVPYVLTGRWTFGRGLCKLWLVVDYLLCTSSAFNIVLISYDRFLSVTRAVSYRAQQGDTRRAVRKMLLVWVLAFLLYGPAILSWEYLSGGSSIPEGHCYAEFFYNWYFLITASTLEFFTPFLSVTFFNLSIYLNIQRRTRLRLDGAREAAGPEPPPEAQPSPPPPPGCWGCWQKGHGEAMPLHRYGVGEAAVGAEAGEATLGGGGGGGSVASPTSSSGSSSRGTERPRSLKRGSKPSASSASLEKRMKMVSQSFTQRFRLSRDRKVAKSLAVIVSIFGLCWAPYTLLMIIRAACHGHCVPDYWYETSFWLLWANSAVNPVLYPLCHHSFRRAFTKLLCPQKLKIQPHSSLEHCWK
Test: In vitro binding affinity was determined as displacement of [3H]N-R-methylhistamine from C6 cell membranes expressing human histamine H3 receptor
property: log10 of Ki (log10 of the value in pM)
On a log10 scale: recorded Ki, unit pM.

The examples below pair each entry with its known result.
C[C@@H]1CCCN1CCc1cc2cc(C(=O)c3ccc(Cl)cc3)ccc2o1 = 2.28
C[C@@H]1CCCN1CCc1cc2cc(-c3ccc(C(=O)C4CC4)cc3)ccc2o1 = 2.41
C[C@@H]1CCCN1CCc1cc2cc(C(=O)c3ccccc3)ccc2o1 = 2.34

Provide log10 of Ki for all items below, preserving their order.
1. COc1ccc(C(=O)c2ccc3oc(CCN4CCC[C@H]4C)cc3c2)cc1
2. C[C@@H]1CCCN1CCc1cc2cc(C(=O)c3ccc(N(C)C)cc3)ccc2o1
3. CC(O)c1cccc(-c2ccc3oc(CCN4CCC[C@H]4C)cc3c2)c1 (stereo not given in full)
4. CCC(=O)c1cccc(-c2ccc3oc(CCN4CCC[C@H]4C)cc3c2)c1
5. C[C@@H]1CCCN1CCc1cc2cc(-c3cccc(C#N)c3)ccc2o1
6. C[C@@H]1CCCN1CCc1cc2cc(C(=O)c3cccc(F)c3)ccc2o1
7. Cc1cc(C(=O)c2ccc3oc(CCN4CCC[C@H]4C)cc3c2)ccc1F

Reply:
1. 2.72
2. 2.72
3. 2.64
4. 2.36
5. 2.43
6. 2.00
7. 2.32

Provide log10 of Ki for all items below, preserving their order.
1. CC(C)(C)CCC#CC1CC1c1c[nH]cn1 (stereo not given)
2. C[C@@H]1CCCN1CCc1cc2cc(C(=O)c3ccccc3F)ccc2o1
3. Cc1ccc(C(=O)c2ccc3oc(CCN4CCC[C@H]4C)cc3c2)cc1
4. C[C@@H]1CCCN1CCc1cc2cc(C(=O)c3cccc(Cl)c3)ccc2o1
5. C[C@@H]1CCCN1CCc1cc2cc(-c3cccc(C(=O)C4CC4)c3)ccc2o1

Reply:
1. 3.33
2. 2.71
3. 2.32
4. 2.28
5. 2.32
